# Tested Target: T1, human IL-13 variant (R130Q) (human, UniProt P35225 35-146)
# T1 construct: called R110Q in the assay descriptions (mature numbering); also called h IL-13v; hIL-13v
# T1 sequence (P35225 35-146 limits assumed, stated change not applied): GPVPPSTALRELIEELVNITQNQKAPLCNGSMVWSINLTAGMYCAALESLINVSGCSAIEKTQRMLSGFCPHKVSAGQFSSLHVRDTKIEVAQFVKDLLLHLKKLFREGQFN
# Test Description: SPR (Biacore), mAb captured, IL-13 as analyte
Assignment: determine reported koff for the given binders.
One number for each entry, in s⁻¹.

Please review the following examples before continuing.
* 5G1 (antibody, V domains shown) VH: QVQLQQSGAELARPGTSVKLSCKASGYTFTTYGVSWVKQRTGQGLEWIGEIYPGNYNTYYNEKFRGKATLTADKSSSTAYMQLSSLTSEDSAVYFCSRWRTSYFSDYGYFDYWGQGTTLTVSS VL: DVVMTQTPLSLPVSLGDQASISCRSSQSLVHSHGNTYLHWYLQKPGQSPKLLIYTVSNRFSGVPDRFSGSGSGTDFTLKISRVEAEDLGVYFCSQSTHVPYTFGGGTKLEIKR | 2.05e-05
* 8B6 (antibody, V domains shown) VH: QVQLKESGPGLVAPSQSLSITCTVSGFSLTGHNINWVRQPPGKGLEWLGMIWGDGNTDFNSALKSRLSISKDNSKSQVFLKLNSLQTDDTARYYCARDGYYPYAIKFWGQGTSVTVSS VL: HIVLTQSPASLAVSLGQRATISCRASETVDSYGSSFLHWYQQKPGQPPKLLIYLASKLESGVPARFSGSGSRTDFTLTIDPVEADDAATYYCQQNNEGPRTFGGGSKLEIKR | 0.00096
* 25C8 (antibody, V domains shown) VH: QVQLQQPGAELVRPGASVQLSCKASGYTFTSSWIHWVNQRPGQGLEWIGMIHPSDSETRLNQKFKDKATLTVDKSSSTAYMQLSSPTSEDSAVYYCASTATDFDYWGQGTTLTVSS VL: DVVLTQTPLSLPVNIGDQASISCKSTKSLLNSDGFTYLDWYLQKPGQSPQLLIYLVSNRFSGAPDRFSGSGSGTDFTLKISRVEAEDLGVYYCFQHNYLPLTFGAGTNLELKR | 8.45e-06

Would you kindly look at the next entry?
The reported value for 9C11 (antibody, V domains shown) VH: QVRLQQPGAELVRPGASVKLSCKASGYTFTSSWIHWVNQRPGQGLEWIGMIHPSDSETRLNQKFKDKATLTVDKSSSTAYMQLSSPTSEDSAVYYCASTATDFDYWGQGTTLTVSS VL: DVVLTQTPLSLPVNIGDQASISCRSTQTLLNSDGFTYLDWYLQKPGQSPQLLIYLVSNRFSGVPDRFSGSGSGTDFTLKISRVEAEDLGVYYCFQNNYLPLTFGAGTKLELKR in terms of koff is 5.86e-05

The values you see were collected from patent US20110165066A1.
